The values you see were collected from patent US20260242395A1.

- target: CDK1/CyclinB (Homo sapiens, UniProt P06493)
- Sequence (P06493 whole entry): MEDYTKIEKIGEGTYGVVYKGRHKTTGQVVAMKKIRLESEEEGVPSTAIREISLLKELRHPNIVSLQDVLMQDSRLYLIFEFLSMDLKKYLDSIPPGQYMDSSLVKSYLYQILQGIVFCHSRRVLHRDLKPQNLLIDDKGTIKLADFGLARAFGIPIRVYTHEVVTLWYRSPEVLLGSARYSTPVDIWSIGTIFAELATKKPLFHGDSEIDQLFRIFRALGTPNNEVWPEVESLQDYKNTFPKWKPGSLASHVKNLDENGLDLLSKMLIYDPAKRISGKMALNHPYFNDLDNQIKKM
- Sequence (P14635 whole entry partner): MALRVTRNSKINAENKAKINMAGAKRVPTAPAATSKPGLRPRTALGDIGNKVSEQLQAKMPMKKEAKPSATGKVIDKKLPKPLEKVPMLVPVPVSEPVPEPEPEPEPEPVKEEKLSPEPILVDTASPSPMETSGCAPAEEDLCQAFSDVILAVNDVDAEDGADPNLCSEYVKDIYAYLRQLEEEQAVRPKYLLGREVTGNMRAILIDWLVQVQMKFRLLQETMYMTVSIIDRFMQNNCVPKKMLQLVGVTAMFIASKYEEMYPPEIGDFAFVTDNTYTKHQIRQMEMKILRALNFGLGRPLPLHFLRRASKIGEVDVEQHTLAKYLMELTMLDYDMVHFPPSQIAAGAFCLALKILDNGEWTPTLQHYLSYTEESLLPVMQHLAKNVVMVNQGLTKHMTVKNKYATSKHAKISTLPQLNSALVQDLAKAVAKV
- testProtocol: CDK1/CyclinB kinase inhibitory activity (Caliper mobility shift)
- measurementSetup: enzyme 3 nM, ATP 20 μM, 28° C. 30 min; read-out: CDK1/Cyclin B1 IC50
pIC50: −log10 of the molar value.
Known pIC50 of a selection of compounds

CC(C)(N)c1cnc2c(F)cc(-c3nc(N[C@@H]4CCOC[C@H]4O)ncc3Cl)cc2c1 = 7.00 to 8.00
Cc1nc2c(F)cc(-c3nc(N[C@@H]4CCOC[C@H]4O)ncc3F)cc2c2c1CC1(CC1)NC2 = 6.00 to 7.00

**Query** // returns reported pIC50 for input Cc1nc2c(F)cc(-c3nc(N[C@@H]4CCOC[C@H]4O)ncc3Cl)cc2c(Cl)c1C(C)O (single isomer, unassigned) [Example 35b]
**Result** ≤ 6.00

**Query** Please give the measured pIC50 for this compound: CC(C)(O)c1cnc2c(F)cc(-c3nc(N[C@@H]4CCOC[C@H]4O)ncc3Cl)cc2c1Cl
**Result** 6.00 to 7.00

**Query** Please look up its pIC50: CNC(C)c1cc2cc(-c3nc(N[C@@H]4CCOC[C@H]4O)ncc3Cl)cc(F)c2nc1C (single isomer, unassigned) [Example 45b]
**Result** ≤ 6.00

**Query** Record request: pIC50 value, item Cc1nc2c(F)cc(-c3nc(N[C@@H]4CCOC[C@H]4O)ncc3Cl)cc2c(Cl)c1C(C)O (single isomer, unassigned) [Example 35a]
**Result** 6.00 to 7.00

**Query** Please look up its pIC50: [2H]c1nc2c(F)cc(-c3nc(N[C@@H]4CCOC[C@H]4O)ncc3F)cc2c(C)c1C(C)(C)O
**Result** 6.00 to 7.00

**Query** Given the entry Cc1nc2c(F)cc(-c3nc(N[C@@H]4CCOC[C@H]4O)ncc3Cl)cc2cc1C(C)NC1CC1 (single isomer, unassigned) [Example 73b] , report its measured pIC50.
**Result** 6.00 to 7.00

**Query** I'd like to know its pIC50. The compound in question is [2H]c1nc(N[C@@H]2CCOC[C@H]2O)nc(-c2cc(F)c3nc(C)c(C(C)(C)O)cc3c2)c1F
**Result** 6.00 to 7.00

**Query** Entry CC1Cc2cnc3c(F)cc(-c4nc(N[C@@H]5CCOC[C@H]5O)ncc4Cl)cc3c2CN1 (single isomer, unassigned) [Example 34b] has what pIC50?
**Result** ≤ 6.00

**Query** Consider the compound shown here: CC1(C)Cc2cnc3c(F)cc(-c4nc(N[C@@H]5CCOC[C@H]5O)ncc4F)cc3c2CN1 What is its recorded pIC50?
**Result** 6.00 to 7.00

**Query** Which pIC50 reading was recorded for the compound Cc1c(C(C)NC2CC2)cnc2c(F)cc(-c3nc(N[C@@H]4CCOC[C@H]4O)ncc3Cl)cc12 (single isomer, unassigned) [Example 91b] ?
**Result** ≤ 6.00

**Query** Entry CC1(C)NCc2c(cnc3c(F)cc(-c4nc(N[C@@H]5CCOC[C@H]5O)ncc4F)cc23)C1O (single isomer, unassigned) [Example 106b] has what pIC50?
**Result** 6.00 to 7.00

**Query** Field request: pIC50 | item: CC(C)(O)c1cnc2c(F)cc(-c3nc(N[C@@H]4CCOC[C@H]4O)ncc3Cl)cc2c1
**Result** ≤ 6.00

**Query** Which value of pIC50 has been reported for O[C@@H]1COCC[C@H]1Nc1ncc(Cl)c(-c2cc(F)c3ncc4c(c3c2)CNC2(CC2)C4)n1 in the records?
**Result** 6.00 to 7.00

**Query** Any idea what pIC50 was measured for Cc1c(C(C)(C)O)cnc2c(F)cc(-c3nc(N[C@@H]4CCOC[C@H]4O)ncc3F)cc12 ?
**Result** 6.00 to 7.00

**Query** What value of pIC50 has been reported for the following compound? O[C@@H]1COCC[C@H]1Nc1ncc(Cl)c(-c2cc(F)c3ncc4c(c3c2)CNCC4)n1
**Result** 6.00 to 7.00

**Query** Fill blank: measured pIC50 of the compound Cc1nc2c(F)cc(-c3nc(N[C@@H]4CCOC[C@H]4O)ncc3Cl)cc2cc1C1CCCN1 (single isomer, unassigned) [Example 57a] is ____.
**Result** 6.00 to 7.00

**Query** // query pIC50 value for entry CNC(C)c1cnc2c(F)cc(-c3nc(N[C@@H]4CCOC[C@H]4O)ncc3Cl)cc2c1 (single isomer, unassigned) [Example 32a]
**Result** 6.00 to 7.00

**Query** Item Cc1nc2c(F)cc(-c3nc(N[C@@H]4CCOC[C@H]4O)ncc3F)cc2c(C)c1C(C)O (single isomer, unassigned) [Example 81a] has what recorded pIC50?
**Result** 6.00 to 7.00

**Query** Name the recorded pIC50 for Cc1c(C(C)O)cnc2c(F)cc(-c3nc(N[C@@H]4CCOC[C@H]4O)ncc3Cl)cc12 (single isomer, unassigned) [Example 88a] .
**Result** 6.00 to 7.00

**Query** Would you kindly share the measured pIC50 for CC1(C)Cc2cnc3c(F)cc(-c4nc(N[C@@H]5CCOC[C@H]5O)ncc4Cl)cc3c2CN1 ?
**Result** 6.00 to 7.00

**Query** Which value of pIC50 has been reported for Cc1nc2c(F)cc(-c3nc(N[C@@H]4CCOC[C@H]4O)ncc3F)cc2c(C)c1C(C)O (single isomer, unassigned) [Example 81b] in the records?
**Result** 6.00 to 7.00

**Query** So what does the record say about pIC50 for O[C@@H]1COCC[C@H]1Nc1ncc(Cl)c(-c2cc(F)c3ncc(C4(O)CC4)cc3c2)n1 ?
**Result** 6.00 to 7.00

**Query** Recorded pIC50 of Cc1c(C(C)(C)O)cnc2c(F)cc(-c3nc(N[C@@H]4CCOC[C@H]4O)ncc3Cl)cc12 , please.
**Result** 6.00 to 7.00

**Query** Consider the compound shown here: [2H]c1nc2c(F)cc(-c3nc(N[C@@H]4CCOC[C@H]4O)ncc3Cl)cc2c2c1CC(C)(C)NC2 What is its recorded pIC50?
**Result** 6.00 to 7.00

**Query** // pIC50 lookup, key: Cc1nc2c(F)cc(-c3nc(N[C@@H]4CCOC[C@H]4O)ncc3Cl)cc2cc1C(C)(C)O
**Result** ≤ 6.00

* * *

- target: CDK6/CyclinD3 (Homo sapiens, UniProt Q00534)
- Sequence (Q00534 whole entry): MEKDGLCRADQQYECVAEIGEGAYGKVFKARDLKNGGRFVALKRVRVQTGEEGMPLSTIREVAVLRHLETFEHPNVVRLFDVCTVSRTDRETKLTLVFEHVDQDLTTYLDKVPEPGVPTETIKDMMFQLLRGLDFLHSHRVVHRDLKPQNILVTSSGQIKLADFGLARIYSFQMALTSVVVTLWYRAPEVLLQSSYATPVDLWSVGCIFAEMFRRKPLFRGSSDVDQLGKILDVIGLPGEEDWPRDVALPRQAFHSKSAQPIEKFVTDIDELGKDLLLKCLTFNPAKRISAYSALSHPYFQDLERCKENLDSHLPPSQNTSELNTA
- Sequence (P30281 whole entry partner): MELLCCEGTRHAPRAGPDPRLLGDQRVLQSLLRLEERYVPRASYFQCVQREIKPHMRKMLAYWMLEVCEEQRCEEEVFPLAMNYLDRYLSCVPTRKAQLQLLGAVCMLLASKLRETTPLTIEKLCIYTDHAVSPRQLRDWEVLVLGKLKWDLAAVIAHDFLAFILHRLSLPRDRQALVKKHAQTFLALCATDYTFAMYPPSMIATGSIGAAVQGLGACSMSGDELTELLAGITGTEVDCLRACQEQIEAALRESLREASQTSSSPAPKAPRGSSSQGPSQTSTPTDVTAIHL
- testProtocol: CDK6/CyclinD3 kinase inhibitory activity (Caliper mobility shift)
- measurementSetup: enzyme 15 nM, ATP 800 μM, 28° C. 30 min; read-out: CDK6/Cyclin D3 IC50
pIC50: −log10 of the molar value.
attributeMeasured: pIC50

Worked examples follow.
CNC(C)c1cnc2c(F)cc(-c3nc(N[C@@H]4CCOC[C@H]4O)ncc3Cl)cc2c1 (single isomer, unassigned) [Example 32b] = 6.00 to 7.00
[2H]c1nc2c(F)cc(-c3nc(N[C@@H]4CCOC[C@H]4O)ncc3C)cc2c2c1CC1(CC1)NC2 [Example 67] = ≤ 6.00
Cc1cnc(N[C@@H]2CCOC[C@H]2O)nc1-c1cc(F)c2nc(C)c3c(c2c1)CNC(C)(C)C3 [Example 104] = ≤ 6.00
CC1Cc2cnc3c(F)cc(-c4nc(N[C@@H]5CCOC[C@H]5O)ncc4Cl)cc3c2CN1 (single isomer, unassigned) [Example 34b] = 6.00 to 7.00
Cc1nc2c(F)cc(-c3nc(N[C@@H]4CCOC[C@H]4O)ncc3F)cc2c2c1CC1(CC1)NC2 [Example 65] = 6.00 to 7.00

**Query** So what does the record say about pIC50 for CNC(C)c1cc2cc(-c3nc(N[C@@H]4CCOC[C@H]4O)ncc3F)cc(F)c2nc1C (single isomer, unassigned) [Example 54b] ?
**Result** 6.00 to 7.00

**Query** Could you tell me which pIC50 is on file for CNC(C)c1cnc2c(F)cc(-c3nc(N[C@@H]4CCOC[C@H]4O)ncc3F)cc2c1Cl (single isomer, unassigned) [Example 64b] ?
**Result** 6.00 to 7.00

**Query** What value of measured pIC50 is listed for CC1NCCc2cnc3c(F)cc(-c4nc(N[C@@H]5CCOC[C@H]5O)ncc4Cl)cc3c21 (single isomer, unassigned) [Example 31a] ?
**Result** ≤ 6.00

**Query** What measured pIC50 goes with CN1Cc2c(cnc3c(F)cc(-c4nc(N[C@@H]5CCOC[C@H]5O)ncc4Cl)cc23)C(O)C1(C)C (single isomer, unassigned) [Example 111a] ?
**Result** 6.00 to 7.00

**Query** Give the measured pIC50 of [2H]c1nc(N[C@@H]2CCOC[C@H]2O)nc(-c2cc(F)c3nc([2H])c(C(C)(C)O)c(C)c3c2)c1F [Example 95] .
**Result** 7.00 to 8.00

**Query** Recorded pIC50 of Cc1nc2c(F)cc(-c3nc(N[C@@H]4CCOC[C@H]4O)ncc3Cl)cc2cc1C(C)(C)O [Example 5] , please.
**Result** 6.00 to 7.00

**Query** Tell me the measured pIC50 of Cc1nc2c(F)cc(-c3nc(N[C@@H]4CCOC[C@H]4O)ncc3Cl)cc2c(Cl)c1C(C)O (single isomer, unassigned) [Example 35a] , please.
**Result** 7.00 to 8.00

**Query** Sample CC(NC1CC1)c1cnc2c(F)cc(-c3nc(N[C@@H]4CCOC[C@H]4O)ncc3Cl)cc2c1Cl (single isomer, unassigned) [Example 90a] — what was its pIC50?
**Result** 6.00 to 7.00
